B1: Azoarcus group I ribozyme (parent)
chain: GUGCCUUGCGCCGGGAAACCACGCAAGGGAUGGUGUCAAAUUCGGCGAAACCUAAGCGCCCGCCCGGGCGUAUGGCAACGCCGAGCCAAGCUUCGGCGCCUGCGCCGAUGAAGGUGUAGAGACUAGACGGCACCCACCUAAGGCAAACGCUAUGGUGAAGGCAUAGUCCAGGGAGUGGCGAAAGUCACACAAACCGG

variants of: B1; experiment: reverse-splicing fitness (ratio to wild type); higher = more active; in vitro selection; Mg2+ level not given
Item-by-item account of reverse-splicing fitness
measured.quantity: reverse-splicing fitness

A111U A145C C169A; 0.027
A111U A120G A145U C150A C169G U176A; 0.0165
C82A A120U A145G C150U C169G U176G; 0.00214
C82G A145C C169G U176G; 0.0041
C82A A111C A120U A145C C169G U176C; 0.00316
C82A A111G C150G C169A U176G; 0.00753
C82A A111G A120G A145G C150A C169U U176A; 0.0192
A111G A120U A145U C150G C169U; 0.012
C82G A111U A120G A145U C169U; 0.01
C82A A120G A145U C169G U176C; 0.0144
C82U A111C A120U A145C C150A C169G U176A; 0.00308
C82A A120C A145C C150A; 0.0144
A111G A145G C150A C169U; 0.0371
C82G A111G A120U A145C C169A U176C; 0.00168
A120U A145G C150G U176C; 0.146
A111G A120C A145C C150U C169U U176A; 0.0273
A120C A145C C169G U176G; 0.00338
A120U C150U C169A U176C; 0.00368
A111C A120C C150A C169G U176C; 0.021
C82U A120C A145C C150U C169A U176C; 0.00498
A111C A120G A145G C150G C169U; 0.0264
C82A A111C A120U C150U C169U; 0.00638
C82U A111G A120C A145C U176A; 0.0156
C82A A120U A145C C169G U176C; 0.00235
C82A A111C A120G A145G C150U C169A U176A; 0.016
C82U A111C A120C C150A U176C; 0.022
C82U A111G A120U A145G C150A; 0.01
C82G A111U A120U A145C C150U C169U U176G; 0.00228
A111G A120U A145U C169G U176C; 0.0178
C82G A111G A120U A145G C150G C169G U176G; 0.00372
C82U A120G A145U C150A C169U U176G; 0.00395
A111C A120U C169G U176G; 0.00154
C82A A111G A120C A145G C150A C169G; 0.00915
A120C A145U C150A C169U; 0.0832
C82U A111G A120U C150U C169U U176C; 0.00375
C82U A111G A120U C169U U176G; 0.0017
C82A A111U A120G A145U C150U U176G; 0.00672
C82U A120C C150A C169A; 0.00872
